# experimentSummary: DRUGMATRIX: GABAA, Flunitrazepam, Central radioligand binding (ligand: [3H] Flunitrazepam)
# Format: cell membranes, Rattus norvegicus, Wistar, Brain, Membrane
# studyConditions: Not Active = under 50% inhibition at 10 µM; read-out: Ki
pKi: −log10 of the molar value.

| smilesInput | pKi |
| --- | --- |
| O=C1CN=C(c2ccccc2)c2cc([N+](=O)[O-])ccc2N1 | 7.35 |
| CN1[C@@H]2CC[C@H]1C[C@@H](OC(=O)c1c[nH]c3ccccc13)C2 | 6.03 |

* * *

# targetDesc: Cytochrome P450 3A4 (Homo sapiens, UniProt P08684); note: in other assays of this panel Not Active means under 50% inhibition at 10 µM
# Sequence (P08684 whole entry): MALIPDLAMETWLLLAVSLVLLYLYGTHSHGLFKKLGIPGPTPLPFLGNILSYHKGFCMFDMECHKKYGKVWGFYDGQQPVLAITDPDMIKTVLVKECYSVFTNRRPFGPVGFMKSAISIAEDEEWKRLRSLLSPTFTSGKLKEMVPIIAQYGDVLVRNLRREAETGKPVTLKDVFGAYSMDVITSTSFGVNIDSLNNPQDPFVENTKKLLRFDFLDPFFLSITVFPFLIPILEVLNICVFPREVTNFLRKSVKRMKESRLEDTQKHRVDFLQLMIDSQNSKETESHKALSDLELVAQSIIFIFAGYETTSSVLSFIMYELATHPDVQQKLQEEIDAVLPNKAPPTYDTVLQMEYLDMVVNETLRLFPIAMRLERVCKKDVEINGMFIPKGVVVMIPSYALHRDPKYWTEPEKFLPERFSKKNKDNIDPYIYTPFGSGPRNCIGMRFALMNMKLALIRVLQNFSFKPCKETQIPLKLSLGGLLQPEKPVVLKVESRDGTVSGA
# studyConditions: bti-tn-5b1-4

| compound | targetDesc | Ki |
| --- | --- | --- |
| O=[N+]([O-])c1cc([As](=O)(O)O)ccc1O [ROXARSONE] | Cytochrome P450 3A4 (Homo sapiens, UniProt P08684) | Not Active |
| CC(C)(C)NCC(O)c1ccc(O)c(CO)c1 (stereo not given) [ALBUTEROL] | Cytochrome P450 3A4 (Homo sapiens, UniProt P08684) | Not Active |
| Nc1nc2c(ncn2COC(CO)CO)c(=O)[nH]1 [GANCICLOVIR] | Cytochrome P450 3A4 (Homo sapiens, UniProt P08684) | Not Active |
| Oc1cccc2cccnc12 [OXYQUINOLINE] | Cytochrome P450 3A4 (Homo sapiens, UniProt P08684) | Not Active |
| CC1(C)S[C@@H]2[C@H](NC(=O)[C@H](N)c3ccc(O)cc3)C(=O)N2[C@H]1C(=O)O [AMOXICILLIN] | Cytochrome P450 3A4 (Homo sapiens, UniProt P08684) | Not Active |
| CN1CCC[C@H]1c1cccnc1 [NICOTINE] | Cytochrome P450 3A4 (Homo sapiens, UniProt P08684) | Not Active |
| Brc1ccccc1 [BROMOBENZENE] | Cytochrome P450 3A4 (Homo sapiens, UniProt P08684) | Not Active |
| O=c1[nH]cc(F)c(=O)[nH]1 [FLUOROURACIL] | Cytochrome P450 3A4 (Homo sapiens, UniProt P08684) | Not Active |
| COc1c(N2CCNC(C)C2)c(F)cc2c(=O)c(C(=O)O)cn(C3CC3)c12 (stereo not given) [GATIFLOXACIN] | Cytochrome P450 3A4 (Homo sapiens, UniProt P08684) | Not Active |
| CN(C)CCCC1(c2ccc(F)cc2)OCc2cc(C#N)ccc21 (stereo not given) [CITALOPRAM] | Cytochrome P450 3A4 (Homo sapiens, UniProt P08684) | Not Active |
| CC(C)(S)[C@@H](N)C(=O)O [PENICILLAMINE] | Cytochrome P450 3A4 (Homo sapiens, UniProt P08684) | Not Active |
| O=C1CCc2cc(OCCCCc3nnnn3C3CCCCC3)ccc2N1 [CILOSTAZOL] | Cytochrome P450 3A4 (Homo sapiens, UniProt P08684) | Not Active |
| C[C@]12CCC(=O)C=C1CC[C@@H]1[C@@H]2C(=O)C[C@@]2(C)[C@H]1CC[C@]2(O)C(=O)CO [CORTISONE] | Cytochrome P450 3A4 (Homo sapiens, UniProt P08684) | Not Active |
| Nc1ccc(S(=O)(=O)Nc2ccnn2-c2ccccc2)cc1 [SULFAPHENAZOLE] | Cytochrome P450 3A4 (Homo sapiens, UniProt P08684) | Not Active |
| CCCCCCCCCc1ccc(O)cc1 [4-NONYLPHENOL] | Cytochrome P450 3A4 (Homo sapiens, UniProt P08684) | Not Active |
| Clc1ccc(C(c2ccccc2Cl)C(Cl)Cl)cc1 (stereo not given) [MITOTANE] | Cytochrome P450 3A4 (Homo sapiens, UniProt P08684) | Not Active |
| CC[C@@]1(O)C(=O)OCc2c1cc1n(c2=O)Cc2cc3ccccc3nc2-1 [CAMPTOTHECIN] | Cytochrome P450 3A4 (Homo sapiens, UniProt P08684) | Not Active |
| CCc1cccc2c3c([nH]c12)C(CC)(CC(=O)O)OCC3 (stereo not given) [ETODOLAC] | Cytochrome P450 3A4 (Homo sapiens, UniProt P08684) | Not Active |
| CN(C)CCCN1c2ccccc2CCc2ccc(Cl)cc21 [CLOMIPRAMINE] | Cytochrome P450 3A4 (Homo sapiens, UniProt P08684) | Not Active |
| CC=CC(=O)N(CC)c1ccccc1C | Cytochrome P450 3A4 (Homo sapiens, UniProt P08684) | Not Active |
| Nc1nc(=O)[nH]cc1F [FLUCYTOSINE] | Cytochrome P450 3A4 (Homo sapiens, UniProt P08684) | Not Active |
| CCC[C@@H]1C[C@@H](C(=O)N[C@@H]([C@H]2O[C@H](SC)[C@H](O)[C@@H](O)[C@H]2O)[C@@H](C)O)N(C)C1 [LINCOMYCIN] | Cytochrome P450 3A4 (Homo sapiens, UniProt P08684) | Not Active |
| Cc1ncc([N+](=O)[O-])n1CC(C)O (stereo not given) [SECNIDAZOLE] | Cytochrome P450 3A4 (Homo sapiens, UniProt P08684) | Not Active |
| CNCCC=C1c2ccccc2CCc2ccccc21 [NORTRIPTYLINE] | Cytochrome P450 3A4 (Homo sapiens, UniProt P08684) | Not Active |
| O=C1CN=C(c2ccccc2)c2cc([N+](=O)[O-])ccc2N1 [NITRAZEPAM] | Cytochrome P450 3A4 (Homo sapiens, UniProt P08684) | Not Active |
| NC(=O)c1ncn([C@@H]2O[C@H](CO)[C@@H](O)[C@H]2O)n1 [RIBAVIRIN] | Cytochrome P450 3A4 (Homo sapiens, UniProt P08684) | Not Active |
| CC(=O)CCCCn1c(=O)c2c(ncn2C)n(C)c1=O [PENTOXIFYLLINE] | Cytochrome P450 3A4 (Homo sapiens, UniProt P08684) | Not Active |
| Cc1ccccc1N1CCN(CCc2nnc3n2CCCC3)CC1 [DAPIPRAZOLE] | Cytochrome P450 3A4 (Homo sapiens, UniProt P08684) | Not Active |
| NNC(=O)c1ccncc1 [ISONIAZID] | Cytochrome P450 3A4 (Homo sapiens, UniProt P08684) | Not Active |
| CCc1ccc(C(=O)C(C)CN2CCCCC2)cc1 (stereo not given) [EPERISONE] | Cytochrome P450 3A4 (Homo sapiens, UniProt P08684) | Not Active |
